Tested on: soybean cyst nematode (SCN)
test-description: SCN greenhouse soil assay on soybean plants
Format: in vivo, H. glycines
condition-parameters: 0 day treatment, 0.25 kg/ha rate, harvested 28 days after egg inoculation
reported-endpoint: percent control (cyst reduction) relative to the control blank treatment (%^)
Value expressed in %^; do not type the unit.

In: Item Clc1ccc(-n2nnc(-c3cccs3)n2)cc1 has what recorded percent control (cyst reduction) relative to the control blank treatment?
Out: 24

In: Item c1ccc(-n2nnc(-c3cccs3)n2)cc1 has what recorded percent control (cyst reduction) relative to the control blank treatment?
Out: 52

In: Item CNC(=O)O/N=C(\SC)C(=O)N(C)C [Oxamyl, reference compound] has what recorded percent control (cyst reduction) relative to the control blank treatment?
Out: 75

In: Item Cc1cc(Cl)ccc1-n1nnc(-c2ccco2)n1 has what recorded percent control (cyst reduction) relative to the control blank treatment?
Out: 44
